Listed below: recombinant barcode read abundance (log10) values for each entry.
test: recombinant barcode read abundance after kanamycin selection (control-corrected) (log10(CPM+1)); higher = more efficient recombination; sequences stand for … in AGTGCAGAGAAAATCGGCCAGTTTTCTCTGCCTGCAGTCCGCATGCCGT…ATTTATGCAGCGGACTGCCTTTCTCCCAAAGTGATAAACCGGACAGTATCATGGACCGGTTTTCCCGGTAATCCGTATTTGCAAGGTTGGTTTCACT; site = the 11-nt target
endpoint: recombinant barcode read abundance (log10)

• GTCGCCCAGTGGGTTCTAACCTGTTGCTACT [GTCGCCCCTTA_LTGcore_AG_RTGcore_AG] (site GTCGCCCCTTA) (LTG core: AG, RTG core: AG) = 0.283
• AAACATGCGTGGGTTCTAACCTGTTGCCTAG [AAACATGCTAG_LTGcore_CG_RTGcore_CT] (site AAACATGCTAG) (LTG core: CG, RTG core: CT) = 0.0702
• GGACACCTGTGGGTTCTAACCTGTTGCCTAG [GGACACCCTAG_LTGcore_TG_RTGcore_CT] (site GGACACCCTAG) (LTG core: TG, RTG core: CT) = 0.0753
• CATATTAAGTGGGTTCTAACCTGTTGCCTAG [CATATTACTAG_LTGcore_AG_RTGcore_CT] (site CATATTACTAG) (LTG core: AG, RTG core: CT) = 0.0215
• GGGCGGACTTGGGTTCTAACCTGTTGCGGTT [GGGCGGACTCC_LTGcore_CT_RTGcore_AA] (site GGGCGGACTCC) (LTG core: CT, RTG core: AA) = 0.765
• TAAGAATATTGGGTTCTAACCTGTTGCCTAT [TAAGAATCTAG_LTGcore_AT_RTGcore_AT] (site TAAGAATCTAG) (LTG core: AT, RTG core: AT) = 0.141
• ATGCTTTTATGGGTTCTAACCTGTTGCCTAG [ATGCTTTCTAG_LTGcore_TA_RTGcore_CT] (site ATGCTTTCTAG) (LTG core: TA, RTG core: CT) = 0.238
• GAGTCCAGGTGGGTTCTAACCTGTTGCGTAG [GAGTCCACTAC_LTGcore_GG_RTGcore_CT] (site GAGTCCACTAC) (LTG core: GG, RTG core: CT) = 0.689
• AGGCCTCATTGGGTTCTAACCTGTTGCCTAT [AGGCCTCCTAG_LTGcore_AT_RTGcore_AT] (site AGGCCTCCTAG) (LTG core: AT, RTG core: AT) = 0.0616
• AGGAGGTCGTGGGTTCTAACCTGTTGCCTAG [AGGAGGTCTAG_LTGcore_CG_RTGcore_CT] (site AGGAGGTCTAG) (LTG core: CG, RTG core: CT) = 0.0327
• GCGGGACCTTGGGTTCTAACCTGTTGCCTTT [GCGGGACCTAG_LTGcore_CT_RTGcore_AA] (site GCGGGACCTAG) (LTG core: CT, RTG core: AA) = 0.927
• GGACACCGCTGGGTTCTAACCTGTTGCCTAG [GGACACCCTAG_LTGcore_GC_RTGcore_CT] (site GGACACCCTAG) (LTG core: GC, RTG core: CT) = 0.105
• CGAGCCCACTGGGTTCTAACCTGTTGCTGAG [CGAGCCCCTCA_LTGcore_AC_RTGcore_CT] (site CGAGCCCCTCA) (LTG core: AC, RTG core: CT) = 0.0532
• AGGCGGGCGTGGGTTCTAACCTGTTGCGGAG [AGGCGGGCTCC_LTGcore_CG_RTGcore_CT] (site AGGCGGGCTCC) (LTG core: CG, RTG core: CT) = 2.17
• CATATTACGTGGGTTCTAACCTGTTGCCTCG [CATATTACTAG_LTGcore_CG_RTGcore_CG] (site CATATTACTAG) (LTG core: CG, RTG core: CG) = 0.443
• TGATACCCATGGGTTCTAACCTGTTGCGTAG [TGATACCCTAC_LTGcore_CA_RTGcore_CT] (site TGATACCCTAC) (LTG core: CA, RTG core: CT) = 0.328
• TGTATTCGCTGGGTTCTAACCTGTTGCCTGC [TGTATTCCTAG_LTGcore_GC_RTGcore_GC] (site TGTATTCCTAG) (LTG core: GC, RTG core: GC) = 0.312
• TGTATTCTGTGGGTTCTAACCTGTTGCCTCA [TGTATTCCTAG_LTGcore_TG_RTGcore_TG] (site TGTATTCCTAG) (LTG core: TG, RTG core: TG) = 0.205
• TAGAGGGGATGGGTTCTAACCTGTTGCGGAG [TAGAGGGCTCC_LTGcore_GA_RTGcore_CT] (site TAGAGGGCTCC) (LTG core: GA, RTG core: CT) = 0.441
• TTATAAACGTGGGTTCTAACCTGTTGCCTAG [TTATAAACTAG_LTGcore_CG_RTGcore_CT] (site TTATAAACTAG) (LTG core: CG, RTG core: CT) = 0.111
• AGGAGGTTTTGGGTTCTAACCTGTTGCCTAA [AGGAGGTCTAG_LTGcore_TT_RTGcore_TT] (site AGGAGGTCTAG) (LTG core: TT, RTG core: TT) = 0.218
• TCGCGACCTTGGGTTCTAACCTGTTGCCGCG [TCGCGACCTCG_LTGcore_CT_RTGcore_CG] (site TCGCGACCTCG) (LTG core: CT, RTG core: CG) = 0.436

###

experiment: recombinant barcode read abundance after kanamycin selection (control-corrected) (log10(CPM+1)); higher = more efficient recombination; sequences stand for … in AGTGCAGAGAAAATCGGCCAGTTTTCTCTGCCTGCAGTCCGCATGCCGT…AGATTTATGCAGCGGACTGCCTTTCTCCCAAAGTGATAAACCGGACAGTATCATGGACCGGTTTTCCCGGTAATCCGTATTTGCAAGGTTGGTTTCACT; site = the 11-nt target
Label FALSE if recombinant barcode read abundance (log10) falls below 0.4; label TRUE in every other case.

• GTGGTACCTTGGGTTCTAACCTGTTGCCT (site GTGGTAACTAG) = TRUE
• ACGGGGTCTTGGGTTCTAACCTGTTGCCT (site GCGGGGTCTAG) = FALSE
• TGAAGTACTTGGGTTCTAACCTGTTGCCT (site TGAACTACTAG) = FALSE
• CTATTCGCTTGGGTTCTAACCTGTTGCCT (site CTATTCTCTAG) = FALSE
• AGGCCGCCTTGGGTTCTAACCTGTTGCCG (site AGGCCGCCTCG) = TRUE
• CTACGTACTTGGGTTCTAACCTGTTGCCT (site GTACGTACTAG) = FALSE
• GATGTACCTTGGGTTCTAACCTGTTGCCT (site CATGTACCTAG) = TRUE
• TCTAAACCTTGGGTTCTAACCTGTTGCAT (site TCTAAACCTAT) = FALSE
• CACTTGACTTGGGTTCTAACCTGTTGCCT (site CACTTGACTAG) = TRUE
• GACATCACTTGGGTTCTAACCTGTTGCCT (site GACATCTCTAG) = FALSE

###

experiment: recombinant barcode read abundance after kanamycin selection (control-corrected) (log10(CPM+1)); higher = more efficient recombination; sequences stand for … in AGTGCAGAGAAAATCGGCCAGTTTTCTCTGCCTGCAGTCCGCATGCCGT…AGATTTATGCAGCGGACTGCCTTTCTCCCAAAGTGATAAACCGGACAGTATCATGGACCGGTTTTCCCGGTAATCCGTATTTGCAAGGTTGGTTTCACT; site = the 11-nt target
endpoint: recombinant barcode read abundance (log10)

* GGGGATCCTTGGGTTCTAACCTGTTGCGA (site GGGGAGCCTCC) | 0.00823
* AGGTCGGCTTGGGTTCTAACCTGTTGCCT (site AGGTCGGCTAG) | 1.24
* CTCGGATCTTGGGTTCTAACCTGTTGCCT (site CTCGGAACTAG) | 0.0461
* GTCCTATCTTGGGTTCTAACCTGTTGCAC (site GTCCTATCTGT) | 1.98
* GTGTACCCTTGGGTTCTAACCTGTTGCCT (site GTGTACCCTAG) | 0.918
* GTTCATCCTTGGGTTCTAACCTGTTGCCT (site GATCATCCTAG) | 0.48
* CAATGGTCTTGGGTTCTAACCTGTTGCAT (site CAATGGTCTAC) | 0.476
* CGTCATCCTTGGGTTCTAACCTGTTGCCT (site CGTCAACCTAG) | 0.0954
* AACACTGCTTGGGTTCTAACCTGTTGCCT (site AACACTGCTAG) | 1.09
* TCAGAGGCTTGGGTTCTAACCTGTTGCTG (site TCGGAGGCTCA) | 0.0529
* CATGACACTTGGGTTCTAACCTGTTGCCT (site CATGACACTAG) | 2.45
* TCGTGCCCTTGGGTTCTAACCTGTTGCCT (site TCGTGCGCTAG) | 0.165
* TCGAATCCTTGGGTTCTAACCTGTTGCCT (site TCGAAGCCTAG) | 0.0385
* TGGTAACCTTGGGTTCTAACCTGTTGCCT (site GGGTAACCTAG) | 0.148
* TCTGGGGCTTGGGTTCTAACCTGTTGCGG (site TCTGGGGCTCC) | 2.61
* ATGCCAACTTGGGTTCTAACCTGTTGCCT (site ATGCCTACTAG) | 0.00977
* ACCAATTCTTGGGTTCTAACCTGTTGCCT (site ACCAATTCTAG) | 0.483
* TAGCCACCTTGGGTTCTAACCTGTTGCCT (site CAGCCACCTAG) | 0.917
* CTTGACACTTGGGTTCTAACCTGTTGCCT (site CTTGACACTAG) | 2.07
* CCAAGGACTTGGGTTCTAACCTGTTGCCT (site CCAAGGACTAG) | 0.348
* GCCCAATCTTGGGTTCTAACCTGTTGCCT (site GCCCGATCTAG) | 0.176
* CTACAGCCTTGGGTTCTAACCTGTTGCTT (site CTACACCCTAA) | 0.0559
* ACACTGTCTTGGGTTCTAACCTGTTGCGG (site ACAGTGTCTCC) | 0.379
* TCCTAGACTTGGGTTCTAACCTGTTGCGG (site TTCTAGACTCC) | 0.117
* TAGGATGCTTGGGTTCTAACCTGTTGCGT (site TAGGATGCTAC) | 2.66
* TCTCTGCCTTGGGTTCTAACCTGTTGCCT (site TCTCTGCCTAG) | 0.208
* AATGGATCTTGGGTTCTAACCTGTTGCCT (site AATGTATCTAG) | 0.0683
* TAATGGTCTTGGGTTCTAACCTGTTGCAT (site TAATGGTCTAT) | 1.61
* TGCGCGACTTGGGTTCTAACCTGTTGCCT (site TGCGCTACTAG) | 0.0869
* GTCCAGACTTGGGTTCTAACCTGTTGCCT (site GTTCAGACTAG) | 0.228
* AATTGTCCTTGGGTTCTAACCTGTTGCAT (site AATTGTCCTAC) | 0.102
* GCCACACCTTGGGTTCTAACCTGTTGCCT (site GCCAAACCTAG) | 0.188
* TGTACCTCTTGGGTTCTAACCTGTTGCCT (site TGTACCTCTAG) | 0.522
* TATAACTCTTGGGTTCTAACCTGTTGCCT (site AATAACTCTAG) | 0.0281
* ACAGTAGCTTGGGTTCTAACCTGTTGCTG (site ACAATAGCTCA) | 0.181
* TGATAGCCTTGGGTTCTAACCTGTTGCCT (site GGATAGCCTAG) | 0.159
* TAATGACCTTGGGTTCTAACCTGTTGCAT (site TAATGACCTAA) | 0.0652
* CCAAGGGCTTGGGTTCTAACCTGTTGCTG (site CCAAGGGCTCT) | 0.727
* AGATAGCCTTGGGTTCTAACCTGTTGCCT (site GGATAGCCTAG) | 0.157
* TCGTGAGCTTGGGTTCTAACCTGTTGCTG (site GGTGACCCTAT) | 0.147
* CTAATTACTTGGGTTCTAACCTGTTGCCT (site CTAGTTACTAG) | 0.159
* TCAGGAGCTTGGGTTCTAACCTGTTGCGG (site TCAGGAGCTCT) | 1.85

Data origin, for the record: the supplement of paper PMC11208160
